Source listed as paper PMC9618103.

Test system: Wistar rats
Experiment: Subacute toxicity: serum and urine glucose, urinary protein excretion
Type: in vivo
Settings: rats, p.o., 14 days at 10% of LD50 (CCl4, APAP: once daily, 3 days); mean ± SEM, n = 6
Assign Serum Glucose to each entry below.
Give the value in mg/dL but do not write mg/dL after it.

Ask: Which value of Serum Glucose has been reported for CCOC(=O)c1nc2ccccn2c1[N+](=O)[O-] in the records?
Reply: 121.27

Ask: What value of Serum Glucose has been reported for the following molecule? O=C(O)c1nc2ccccn2c1[N+](=O)[O-]
Reply: 121.37

Ask: What measured Serum Glucose goes with O=C(O)c1cn2ccccc2n1 [Compound 3a, imidazo[1,2-a]pyridine-2-carboxylic acid] ?
Reply: 80.56

Ask: Can you look up the measured Serum Glucose of N#Cc1nc2ccccn2c1[N+](=O)[O-] for me?
Reply: 126.47

Ask: Returns the measured Serum Glucose for the input molecule. Input: ClC(Cl)(Cl)Cl [CCl4, carbon tetrachloride, reference compound]
Reply: 103.17

Ask: What value of Serum Glucose has been reported for the following molecule? CCOC(=O)c1cn2ccccc2n1
Reply: 112.39

Ask: Which Serum Glucose reading was recorded for the molecule N#Cc1cn2ccccc2n1 [Compound 2a, imidazo[1,2-a]pyridine-2-carbonitrile] ?
Reply: 103.46

----------
System: Wistar rats
Test: Subacute toxicity: serum and urine glucose, urinary protein excretion
Assay type: in vivo
Conditions: rats, p.o., 14 days at 10% of LD50 (CCl4, APAP: once daily, 3 days); mean ± SEM, n = 6
Endpoint Label: Urinary Protein Excretion (µg/min)
The reply should be a number in µg/min, with the unit left off.

Ask: Can you share its Urinary Protein Excretion? I mean this compound: O=C(O)c1nc2ccccn2c1[N+](=O)[O-]
Reply: 1.18

Ask: Would you kindly share the measured Urinary Protein Excretion for N#Cc1cn2ccccc2n1 [Compound 2a, imidazo[1,2-a]pyridine-2-carbonitrile] ?
Reply: 0.65

Ask: # get_value(readout='Urinary Protein Excretion', item= CCOC(=O)c1cn2ccccc2n1 )
Reply: 0.56

Ask: What measured Urinary Protein Excretion goes with N#Cc1nc2ccccn2c1[N+](=O)[O-] ?
Reply: 0.86

Ask: Quick check: Urinary Protein Excretion of ClC(Cl)(Cl)Cl [CCl4, carbon tetrachloride, reference compound] ?
Reply: 12.15

Ask: Entry O=C(O)c1cn2ccccc2n1 [Compound 3a, imidazo[1,2-a]pyridine-2-carboxylic acid] : reported Urinary Protein Excretion = ?
Reply: 0.69

Ask: Quick one: Urinary Protein Excretion of CCOC(=O)c1nc2ccccn2c1[N+](=O)[O-] ?
Reply: 0.57

Ask: Record request: Urinary Protein Excretion value, item CC(=O)Nc1ccc(O)cc1 [APAP, acetaminophen, reference compound]
Reply: 0.94

----------
Test system: Wistar rats
Test: Subacute toxicity: serum and urine glucose, urinary protein excretion
Assay type: in vivo
Conditions: rats, p.o., 14 days at 10% of LD50 (CCl4, APAP: once daily, 3 days); mean ± SEM, n = 6
Endpoint Label: Fractional Excretion of Glucose (%)
Write down the numeric answer in % and omit the unit.

Ask: Report Fractional Excretion of Glucose for N#Cc1nc2ccccn2c1[N+](=O)[O-] please.
Reply: 0.01

Ask: Param item = CC(=O)Nc1ccc(O)cc1 [APAP, acetaminophen, reference compound] ; retrieve measured Fractional Excretion of Glucose.
Reply: 0.01

Ask: // lookup Fractional Excretion of Glucose for ClC(Cl)(Cl)Cl [CCl4, carbon tetrachloride, reference compound]
Reply: 0.02

Ask: Find the recorded Fractional Excretion of Glucose belonging to N#Cc1cn2ccccc2n1 [Compound 2a, imidazo[1,2-a]pyridine-2-carbonitrile] and report it.
Reply: 0.02

Ask: Which Fractional Excretion of Glucose reading was recorded for the molecule O=C(O)c1cn2ccccc2n1 [Compound 3a, imidazo[1,2-a]pyridine-2-carboxylic acid] ?
Reply: 0.05

Ask: Please give the measured Fractional Excretion of Glucose for this molecule: CCOC(=O)c1cn2ccccc2n1
Reply: 0.04

Ask: Entry under review: O=C(O)c1nc2ccccn2c1[N+](=O)[O-] . Reported Fractional Excretion of Glucose?
Reply: 0.04
